Experiment: in vivo
Set-up: species or system mice
Test context: female, BALB/c nude, mouse, iv, 20 pmol, total radioactivity, uptake in spleen
Metric: tissue uptake at 72 h (%ID/g)
# output: bare number, implied unit %ID/g

Quote tissue uptake at 72 h reported for CCCC[C@@H](C(=O)N[C@@H](CC(=O)O)C(=O)N[C@@H](Cc1cccc2ccccc12)C(N)=O)N(C)C(=O)[C@H](Cc1c[nH]c2ccccc12)NC(=O)CCNC(=O)CC(O)CNC(=O)CC(O)CNC(=O)CN1CCN(CC(=O)O)CCN(CC(=O)O)CCN(CC(=O)O)CC1 (stereo partly shown) [[^177Lu]Lu-2, metal not drawn] please.
0.13
